B1: tRNA (parent)
chain: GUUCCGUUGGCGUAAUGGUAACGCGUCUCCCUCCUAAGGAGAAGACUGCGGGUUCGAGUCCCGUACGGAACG

Variants of: B1
Test: yeast fitness relative to wild type (ratio to wild type); higher = fitter; tRNA-Arg(CCU), competitive growth, 37 C, YPD
This sample holds only a part of the variants without activity.
Experimental Endpoint: yeast fitness
Returns: the value as a bare number; no unit string appended.

Answered cases to consult:
residue_change="G6C G25A C27G" experimental_endpoint="yeast fitness" measured_number=0.591
residue_change="G39C A40U" experimental_endpoint="yeast fitness" measured_number=0.73
residue_change="C11U C31G A43C" experimental_endpoint="yeast fitness" measured_number=0.654
residue_change="G12C U19A" experimental_endpoint="yeast fitness" measured_number=0.742

Q. What does the record list as yeast fitness for U3G G25A A45C A69U ?
A. 0.814

Q. So what does the record say about yeast fitness for G12C A20C ?
A. 0.699

Origin of the recorded values: the RNAGym collection of RNA variant scans (doi:10.1126/science.aae0568)
